Test system: CD69
test: Induction of CD69 in human whole blood
Format: cell-based
runConditions: heparinized human whole blood, 17 hrs at 37° C.; 100% set to 1 uM resiquimod; average where assay performed multiple times; read-out: hWB CD69 EC50
Measured log10 of EC50 values are reported for all entries that follow.
Note the log scale: values are log10 of EC50 expressed in nM.

Examples from the recorded data:
molecule="CCCCNc1nc(N)nc2cnn(Cc3ccc(C(C)(O)C(F)(F)F)cc3OC)c12 (centres unmarked) [Compound 115]" result=2.53
molecule="CCCCNc1nc(N)nc2cnn(Cc3cc(C(C)(C)N)ccc3OC)c12 [Compound 105]" result=1.70
molecule="CCCCNc1nc(N)nc2cnn(Cc3ccc(C4(N)COC4)cc3OC)c12 [Compound 107]" result=1.63

log10 of EC50 in this record for CCCCNc1nc(N)nc2cnn(Cc3ccc(C(C)(C)N)cc3OC)c12 [Compound 101] : 1.06

// log10 of EC50 lookup, molecule = CCC[C@@H](CCO)Nc1nc(N)nc2cnn(Cc3ccc(C(C)(C)O)cc3OC)c12 [Compound 109] , result: 0.54

Lab note: measured log10 of EC50 of CCC[C@@H](CCO)Nc1nc(N)nc2cnn(Cc3ccc(C(C)(C)N)cc3OC)c12 [Compound 102] was 0.26

Lab note: CCCCNc1nc(N)nc2cnn(Cc3ccc(C4(O)CC4)cc3OC)c12 [Compound 118] gave log10 of EC50 of 2.44

For this molecule ( CCC[C@@H](CCO)Nc1nc(N)nc2cnn(Cc3ccc(C4(N)COC4)cc3OC)c12 [Compound 108] ), measured log10 of EC50 is 0.52

Value of log10 of EC50 reported for the molecule CCCCNc1nc(N)nc2cnn(Cc3ccc(C4(O)CCC4)cc3OC)c12 [Compound 117] is 2.91

Please fill in: log10 of EC50 reported for CC[C@@H](CCO)Nc1nc(N)nc2cnn(Cc3ccc(C(C)(C)N)cc3OC)c12 [Compound 106] = 0.57

Item: CCC[C@@H](CCO)Nc1nc(N)nc2cnn(Cc3cc(C(C)(C)N)ccc3OC)c12 [Compound 104] | log10 of EC50: 1.10

----------
experimentalTarget: human TLR7 (Homo sapiens, UniProt Q9NYK1)
Sequence (Q9NYK1 27-1049): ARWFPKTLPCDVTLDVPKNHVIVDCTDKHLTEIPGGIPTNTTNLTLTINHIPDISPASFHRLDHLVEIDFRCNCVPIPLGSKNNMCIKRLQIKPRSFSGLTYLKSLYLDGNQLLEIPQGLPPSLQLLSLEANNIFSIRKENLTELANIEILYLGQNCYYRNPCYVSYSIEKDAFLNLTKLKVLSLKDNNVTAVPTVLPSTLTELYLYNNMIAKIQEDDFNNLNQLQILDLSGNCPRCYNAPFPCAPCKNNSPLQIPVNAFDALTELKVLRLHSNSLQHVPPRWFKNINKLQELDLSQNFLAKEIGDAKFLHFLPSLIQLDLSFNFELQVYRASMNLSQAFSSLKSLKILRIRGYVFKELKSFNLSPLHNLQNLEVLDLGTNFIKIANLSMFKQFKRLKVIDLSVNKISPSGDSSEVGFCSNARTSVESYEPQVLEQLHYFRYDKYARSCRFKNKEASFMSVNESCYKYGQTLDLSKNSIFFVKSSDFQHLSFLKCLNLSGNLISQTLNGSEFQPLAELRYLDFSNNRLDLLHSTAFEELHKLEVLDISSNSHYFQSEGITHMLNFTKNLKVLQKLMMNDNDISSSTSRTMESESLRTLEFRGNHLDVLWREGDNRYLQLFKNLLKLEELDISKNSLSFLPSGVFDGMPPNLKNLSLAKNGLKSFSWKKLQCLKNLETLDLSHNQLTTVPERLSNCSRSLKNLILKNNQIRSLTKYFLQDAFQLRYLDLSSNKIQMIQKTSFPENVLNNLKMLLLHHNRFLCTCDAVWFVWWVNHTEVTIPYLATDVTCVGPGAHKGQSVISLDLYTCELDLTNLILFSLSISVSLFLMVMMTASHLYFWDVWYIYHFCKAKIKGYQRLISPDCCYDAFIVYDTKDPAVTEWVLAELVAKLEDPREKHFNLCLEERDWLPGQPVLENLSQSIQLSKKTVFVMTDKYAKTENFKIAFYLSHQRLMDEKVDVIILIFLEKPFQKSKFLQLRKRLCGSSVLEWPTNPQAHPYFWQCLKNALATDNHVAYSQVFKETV
test: Human TLR7 agonist activity (reporter) assay
runConditions: HEK-Blue TLR7 cells, SEAP reporter, 18 h treatment; average where assay performed multiple times; read-out: hTLR7 Agonism EC50
EC50 strictly under 0.3 µM means T; at 0.3 µM or over means F.

smilesstructure=CCC[C@@H](CCO)Nc1nc(N)nc2cnn(Cc3ccc(C(C)(C)O)cc3OC)c12 experimentaltarget="human TLR7 (Homo sapiens, UniProt Q9NYK1)" categorylabel=T
smilesstructure=CCC[C@@H](CCO)Nc1nc(N)nc2cnn(Cc3ccc(C4(N)COC4)cc3OC)c12 experimentaltarget="human TLR7 (Homo sapiens, UniProt Q9NYK1)" categorylabel=T
smilesstructure=CCCCNc1nc(N)nc2cnn(Cc3ccc(C4(N)COC4)cc3OC)c12 experimentaltarget="human TLR7 (Homo sapiens, UniProt Q9NYK1)" categorylabel=T

For the next question, use this compound.
Exercise: Quick check: EC50 of "CCCCNc1nc(N)nc2cnn(Cc3ccc(C4(O)CC4)cc3OC)c12" under 0.3 µM?
Key: T

----------
Readings of pEC50 for the listed compounds
experimentalTarget: human TLR7 (Homo sapiens)
test: Human TLR7 agonist activity (reporter) assay
runConditions: HEK-Blue TLR7 cells, SEAP reporter, 18 h treatment; average where assay performed multiple times; read-out: hTLR7 Agonism EC50
pEC50 is defined as minus the log10 of a concentration measured in mol/L.

Recorded results for 2 compounds are shown here.
compound="CCC[C@@H](CCO)Nc1nc(N)nc2cnn(Cc3ccc(C(C)(C)N)cc3OC)c12 [Compound 102]" experimentaltarget="human TLR7 (Homo sapiens)" result=8.14
compound="CCC[C@@H](CCO)Nc1nc(N)nc2cnn(Cc3nc(C(C)(C)N)ccc3OC)c12 [Compound 119]" experimentaltarget="human TLR7 (Homo sapiens)" result=5.31

Attention now turns to another entry.
Just so you know, measured pEC50 for CCCCNc1nc(N)nc2cnn(Cc3ccc(C4(O)CNC4)cc3OC)c12 [Compound 116] came out at 6.10
